Details: in methyl acetate, 298.15 K
reported endpoint: solubility (mole fraction)
No unit in the answer, only the number.

Exercise: Which measured solubility (mole fraction) value corresponds to O=C(O)COc1ccc(Cl)cc1Cl ?
Key: 0.0976

====

Details: in isopropanol, 288.15 K
reported endpoint: solubility (mole fraction)
No unit in the answer, only the number.

Exercise: Which measured solubility (mole fraction) value corresponds to O=C(O)COc1ccc(Cl)cc1Cl ?
Key: 0.0646

====

Settings: in MTBE, 278.15 K
reported endpoint: solubility (mole fraction)

Exercise: Which measured solubility (mole fraction) value corresponds to O=C(O)COc1ccc(Cl)cc1Cl ?
Key: 0.087

====

Conditions: in MTBE, 323.15 K
reported endpoint: solubility (mole fraction)
No unit in the answer, only the number.

Exercise: Which measured solubility (mole fraction) value corresponds to O=C(O)COc1ccc(Cl)cc1Cl ?
Key: 0.19

====

Settings: in n-pentanol, 278.15 K
reported endpoint: solubility (mole fraction)
No unit in the answer, only the number.

Exercise: Which measured solubility (mole fraction) value corresponds to O=C(O)COc1ccc(Cl)cc1Cl ?
Key: 0.0537

====

Conditions: in acetonitrile, 303.15 K
reported endpoint: solubility (mole fraction)
No unit in the answer, only the number.

Exercise: Which measured solubility (mole fraction) value corresponds to O=C(O)COc1ccc(Cl)cc1Cl ?
Key: 0.0572

====

Settings: in methyl acetate, 303.15 K
reported endpoint: solubility (mole fraction)
No unit in the answer, only the number.

Exercise: Which measured solubility (mole fraction) value corresponds to O=C(O)COc1ccc(Cl)cc1Cl ?
Key: 0.106

====

Details: in ethanol, 298.15 K
reported endpoint: solubility (mole fraction)
No unit in the answer, only the number.

Exercise: Which measured solubility (mole fraction) value corresponds to O=C(O)COc1ccc(Cl)cc1Cl ?
Key: 0.141

====

Details: in isobutanol, 318.15 K
reported endpoint: solubility (mole fraction)
No unit in the answer, only the number.

Exercise: Which measured solubility (mole fraction) value corresponds to O=C(O)COc1ccc(Cl)cc1Cl ?
Key: 0.161

====

Settings: in n-pentanol, 308.15 K
reported endpoint: solubility (mole fraction)
No unit in the answer, only the number.

Exercise: Which measured solubility (mole fraction) value corresponds to O=C(O)COc1ccc(Cl)cc1Cl ?
Key: 0.182

====

Details: in acetonitrile, 283.15 K
reported endpoint: solubility (mole fraction)

Exercise: Which measured solubility (mole fraction) value corresponds to O=C(O)COc1ccc(Cl)cc1Cl ?
Key: 0.0246

====

Conditions: in n-butyl acetate, 278.15 K
reported endpoint: solubility (mole fraction)
No unit in the answer, only the number.

Exercise: Which measured solubility (mole fraction) value corresponds to O=C(O)COc1ccc(Cl)cc1Cl ?
Key: 0.0486

====

Details: in isopropanol, 303.15 K
reported endpoint: solubility (mole fraction)
No unit in the answer, only the number.

Exercise: Which measured solubility (mole fraction) value corresponds to O=C(O)COc1ccc(Cl)cc1Cl ?
Key: 0.113

====

Settings: in ethanol, 318.15 K
reported endpoint: solubility (mole fraction)

Exercise: Which measured solubility (mole fraction) value corresponds to O=C(O)COc1ccc(Cl)cc1Cl ?
Key: 0.255

====

Conditions: in isobutyl acetate, 283.15 K
reported endpoint: solubility (mole fraction)

Exercise: Which measured solubility (mole fraction) value corresponds to O=C(O)COc1ccc(Cl)cc1Cl ?
Key: 0.0427

====

Details: in ethyl acetate, 323.15 K
reported endpoint: solubility (mole fraction)
No unit in the answer, only the number.

Exercise: Which measured solubility (mole fraction) value corresponds to O=C(O)COc1ccc(Cl)cc1Cl ?
Key: 0.155

====

Details: in ethyl acetate, 283.15 K
reported endpoint: solubility (mole fraction)
No unit in the answer, only the number.

Exercise: Which measured solubility (mole fraction) value corresponds to O=C(O)COc1ccc(Cl)cc1Cl ?
Key: 0.0622

====

Conditions: in n-butyl acetate, 303.15 K
reported endpoint: solubility (mole fraction)
No unit in the answer, only the number.

Exercise: Which measured solubility (mole fraction) value corresponds to O=C(O)COc1ccc(Cl)cc1Cl ?
Key: 0.0832

====

Conditions: in ethyl acetate, 303.15 K
reported endpoint: solubility (mole fraction)
No unit in the answer, only the number.

Exercise: Which measured solubility (mole fraction) value corresponds to O=C(O)COc1ccc(Cl)cc1Cl ?
Key: 0.101

====

Conditions: in sec-butanol, 323.15 K
reported endpoint: solubility (mole fraction)
No unit in the answer, only the number.

Exercise: Which measured solubility (mole fraction) value corresponds to O=C(O)COc1ccc(Cl)cc1Cl ?
Key: 0.213

====

Details: in n-pentanol, 288.15 K
reported endpoint: solubility (mole fraction)
No unit in the answer, only the number.

Exercise: Which measured solubility (mole fraction) value corresponds to O=C(O)COc1ccc(Cl)cc1Cl ?
Key: 0.0866

====

Conditions: in sec-butanol, 283.15 K
reported endpoint: solubility (mole fraction)
No unit in the answer, only the number.

Exercise: Which measured solubility (mole fraction) value corresponds to O=C(O)COc1ccc(Cl)cc1Cl ?
Key: 0.0535

====

Settings: in isobutanol, 298.15 K
reported endpoint: solubility (mole fraction)
No unit in the answer, only the number.

Exercise: Which measured solubility (mole fraction) value corresponds to O=C(O)COc1ccc(Cl)cc1Cl ?
Key: 0.0778

====

Conditions: in acetone, 318.15 K
reported endpoint: solubility (mole fraction)
No unit in the answer, only the number.

Exercise: Which measured solubility (mole fraction) value corresponds to O=C(O)COc1ccc(Cl)cc1Cl ?
Key: 0.205

====

Conditions: in ethyl acetate, 278.15 K
reported endpoint: solubility (mole fraction)
No unit in the answer, only the number.

Exercise: Which measured solubility (mole fraction) value corresponds to O=C(O)COc1ccc(Cl)cc1Cl ?
Key: 0.0548

====

Conditions: in ethyl acetate, 313.15 K
reported endpoint: solubility (mole fraction)
No unit in the answer, only the number.

Exercise: Which measured solubility (mole fraction) value corresponds to O=C(O)COc1ccc(Cl)cc1Cl ?
Key: 0.126

====

Conditions: in acetonitrile, 293.15 K
reported endpoint: solubility (mole fraction)
No unit in the answer, only the number.

Exercise: Which measured solubility (mole fraction) value corresponds to O=C(O)COc1ccc(Cl)cc1Cl ?
Key: 0.0401

====

Conditions: in n-pentanol, 303.15 K
reported endpoint: solubility (mole fraction)
No unit in the answer, only the number.

Exercise: Which measured solubility (mole fraction) value corresponds to O=C(O)COc1ccc(Cl)cc1Cl ?
Key: 0.155

====

Conditions: in ethyl acetate, 288.15 K
reported endpoint: solubility (mole fraction)

Exercise: Which measured solubility (mole fraction) value corresponds to O=C(O)COc1ccc(Cl)cc1Cl ?
Key: 0.0703

====

Settings: in n-propanol, 288.15 K
reported endpoint: solubility (mole fraction)
No unit in the answer, only the number.

Exercise: Which measured solubility (mole fraction) value corresponds to O=C(O)COc1ccc(Cl)cc1Cl ?
Key: 0.0731

====

Conditions: in n-butyl acetate, 318.15 K
reported endpoint: solubility (mole fraction)
No unit in the answer, only the number.

Exercise: Which measured solubility (mole fraction) value corresponds to O=C(O)COc1ccc(Cl)cc1Cl ?
Key: 0.12

====

Conditions: in n-pentanol, 323.15 K
reported endpoint: solubility (mole fraction)
No unit in the answer, only the number.

Exercise: Which measured solubility (mole fraction) value corresponds to O=C(O)COc1ccc(Cl)cc1Cl ?
Key: 0.281

====

Settings: in n-butyl acetate, 308.15 K
reported endpoint: solubility (mole fraction)
No unit in the answer, only the number.

Exercise: Which measured solubility (mole fraction) value corresponds to O=C(O)COc1ccc(Cl)cc1Cl ?
Key: 0.0931

====

Settings: in n-butyl acetate, 313.15 K
reported endpoint: solubility (mole fraction)

Exercise: Which measured solubility (mole fraction) value corresponds to O=C(O)COc1ccc(Cl)cc1Cl ?
Key: 0.106

====

Details: in n-butanol, 313.15 K
reported endpoint: solubility (mole fraction)
No unit in the answer, only the number.

Exercise: Which measured solubility (mole fraction) value corresponds to O=C(O)COc1ccc(Cl)cc1Cl ?
Key: 0.198

====

Conditions: in n-butyl acetate, 293.15 K
reported endpoint: solubility (mole fraction)
No unit in the answer, only the number.

Exercise: Which measured solubility (mole fraction) value corresponds to O=C(O)COc1ccc(Cl)cc1Cl ?
Key: 0.0678

====

Details: in 2-butanone, 308.15 K
reported endpoint: solubility (mole fraction)
No unit in the answer, only the number.

Exercise: Which measured solubility (mole fraction) value corresponds to O=C(O)COc1ccc(Cl)cc1Cl ?
Key: 0.156

====

Conditions: in acetone, 308.15 K
reported endpoint: solubility (mole fraction)
No unit in the answer, only the number.

Exercise: Which measured solubility (mole fraction) value corresponds to O=C(O)COc1ccc(Cl)cc1Cl ?
Key: 0.176

====

Details: in n-pentanol, 313.15 K
reported endpoint: solubility (mole fraction)
No unit in the answer, only the number.

Exercise: Which measured solubility (mole fraction) value corresponds to O=C(O)COc1ccc(Cl)cc1Cl ?
Key: 0.211
